- measurementTarget: human NAMPT (Homo sapiens (Human), UniProt P43490)
- Sequence (P43490 whole entry): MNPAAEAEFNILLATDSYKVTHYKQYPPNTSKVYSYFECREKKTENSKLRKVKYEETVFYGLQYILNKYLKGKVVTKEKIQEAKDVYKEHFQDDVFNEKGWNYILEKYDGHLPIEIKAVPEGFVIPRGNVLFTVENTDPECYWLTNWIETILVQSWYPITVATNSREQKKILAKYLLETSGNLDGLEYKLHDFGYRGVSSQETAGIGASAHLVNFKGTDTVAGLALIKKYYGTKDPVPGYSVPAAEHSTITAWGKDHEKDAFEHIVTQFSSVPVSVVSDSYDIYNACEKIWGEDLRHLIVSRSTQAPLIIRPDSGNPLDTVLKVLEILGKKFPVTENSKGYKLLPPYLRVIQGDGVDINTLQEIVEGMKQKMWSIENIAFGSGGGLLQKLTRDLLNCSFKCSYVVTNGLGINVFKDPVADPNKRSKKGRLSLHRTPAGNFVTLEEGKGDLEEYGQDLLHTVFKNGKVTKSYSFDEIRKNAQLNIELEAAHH
- measurementNotes: NMN fluorescence biochemical assay (human recombinant NAMPT enzyme assay)
propertyMeasured: AC1.4 Human (µM)

N#Cc1ccc(COC(=O)Nc2ccc(Cc3ccncc3)cc2)cc1    4.97
O=C(Nc1ccc(Cc2nccs2)cc1)OCc1ccc(Cl)cc1    10.07
CN(C)S(=O)(=O)N1CCC(Cc2ccc(NC(=O)OCc3cnco3)cc2)CC1    0.36
CN(C)S(=O)(=O)N1CC2CC(C1)C2Cc1ccc(NC(=O)OCc2cnco2)cc1 (stereo not drawn)    0.21

(A) O=C(Nc1ccc(CNC(=O)c2cncnc2)cc1)OCc1ccc(Cl)cc1
(B) O=C(Nc1ccc(CNC(=O)N2CCC(F)(F)CC2)cc1)OCc1ccc(Cl)cc1
I'd appreciate it if you could identify which of A and B has the greater AC1.4 Human. Respond using the label that marks the chosen record.
B

(a) Cc1ccc(C(=O)NCc2ccc(NC(=O)OCc3cnco3)cc2)cn1
(b) CN(Cc1ccc(NC(=O)OCc2ccc(Cl)cc2)cc1)C(=O)N1CCCC1
I'd appreciate it if you could identify which of a and b has the greater AC1.4 Human. Respond using the label that marks the chosen record.
b
(b: 1.03 µM, a: 0.35 µM)

(A) COc1cc(C(=O)N[C@@H](C)c2ccc(NC(=O)OCc3ccc(Cl)cc3)cc2)n(C)n1
(B) O=C(Nc1ccc(CN2CCN(c3cnccn3)CC2)cc1)OCc1ccc(Cl)cc1
(C) COc1ccc(COC(=O)Nc2ccc(CN3CCN(C)C(=O)C3)cc2)cc1
(D) O=C(Nc1ccc(CC(=O)N2CCCC[C@H]2CO)cc1)OCc1ccc(Cl)cc1
# sort list by recorded AC1.4 Human, greatest to least Quick reminder: the answer is the labels in the order asked.
C, D, A, B
